Measured IC50 accompanies every entry in the list below.
assay target: various mutants of kinase EGFR (BaF3 cell lines stably transfected with kinase) (Homo sapiens, UniProt P00533, L858R)
Construct: expressed in transfected cells; host or cells: BaF3
Sequence (P00533 25-1210 L858R): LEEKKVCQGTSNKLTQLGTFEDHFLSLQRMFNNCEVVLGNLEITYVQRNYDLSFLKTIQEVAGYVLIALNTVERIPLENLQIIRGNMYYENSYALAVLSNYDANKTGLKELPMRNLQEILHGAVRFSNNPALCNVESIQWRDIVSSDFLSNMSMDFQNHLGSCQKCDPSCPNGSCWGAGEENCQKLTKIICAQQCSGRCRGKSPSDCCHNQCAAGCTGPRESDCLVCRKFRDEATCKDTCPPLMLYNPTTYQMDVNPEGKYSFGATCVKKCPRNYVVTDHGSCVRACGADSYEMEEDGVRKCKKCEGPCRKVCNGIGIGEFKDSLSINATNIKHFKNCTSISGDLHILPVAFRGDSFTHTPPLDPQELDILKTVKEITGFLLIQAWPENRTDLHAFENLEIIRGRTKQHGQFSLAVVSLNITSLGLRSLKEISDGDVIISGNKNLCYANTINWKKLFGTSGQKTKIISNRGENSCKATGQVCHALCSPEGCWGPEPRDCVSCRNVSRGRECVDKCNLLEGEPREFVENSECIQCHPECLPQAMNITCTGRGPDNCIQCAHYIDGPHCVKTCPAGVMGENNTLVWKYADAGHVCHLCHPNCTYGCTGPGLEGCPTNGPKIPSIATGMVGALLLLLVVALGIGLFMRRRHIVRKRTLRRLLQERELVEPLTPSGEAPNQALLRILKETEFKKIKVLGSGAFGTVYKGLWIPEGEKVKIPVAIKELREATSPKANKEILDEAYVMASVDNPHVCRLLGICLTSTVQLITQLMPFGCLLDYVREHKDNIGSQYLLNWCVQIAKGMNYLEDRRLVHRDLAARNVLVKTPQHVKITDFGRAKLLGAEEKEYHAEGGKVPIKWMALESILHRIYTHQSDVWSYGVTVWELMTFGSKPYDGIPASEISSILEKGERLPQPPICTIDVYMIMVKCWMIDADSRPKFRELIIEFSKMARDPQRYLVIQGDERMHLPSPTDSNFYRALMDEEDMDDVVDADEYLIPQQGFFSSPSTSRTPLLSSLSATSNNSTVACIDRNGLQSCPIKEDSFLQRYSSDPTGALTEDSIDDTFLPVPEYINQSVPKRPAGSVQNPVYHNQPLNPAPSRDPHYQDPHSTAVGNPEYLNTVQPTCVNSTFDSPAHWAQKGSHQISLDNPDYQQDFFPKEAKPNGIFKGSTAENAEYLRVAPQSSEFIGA
measurement protocol: Growth inhibitory activity of compounds on BaF3 cell lines stably transfected with kinase (MTS, 48 h)
Format: cell-based
stated conditions: BaF3 cells stably transfected with EGFR L858R, read-out: IC50, growth inhibition, L858R

Reference set, count: 5
molecule: COc1cc(N2CCC(N(C)C)CC2)c(C)cc1Nc1ncc(Cl)c(Nc2ccc3nccnc3c2N(C)S(=O)(=O)C(F)(F)F)n1
experimental value: 500 to 2500 nM

molecule: CCc1cc(Nc2ncc(Br)c(Nc3ccc4nccnc4c3N(C)S(=O)(=O)C3CC3)n2)c(OC)cc1N1CCC(N(C)C)C1 (stereo not shown)
experimental value: 50 to 500 nM

molecule: CCc1cc(Nc2ncc(Br)c(Nc3ccc4nccnc4c3N(C)S(=O)(=O)CC)n2)c(OC)cc1N1CCC(N(C)C)CC1
experimental value: ≤ 50 nM

molecule: CCc1cc(Nc2ncc(Cl)c(Nc3ccc4nccnc4c3N(C3CC3)S(C)(=O)=O)n2)c(OC)cc1N1CCC(N(C)C)CC1
experimental value: ≤ 50 nM

molecule: CCc1cc(Nc2ncc(F)c(Nc3ccc4nccnc4c3N(C)S(C)(=O)=O)n2)c(OC)cc1N1CCC(N(C)C)C1 (stereo not shown)
experimental value: ≤ 50 nM

Entry CCc1cc(Nc2ncc(Br)c(Nc3ccc4nccnc4c3N(CC)S(C)(=O)=O)n2)c(OC)cc1N1CCN(C)CC1 has what IC50? ≤ 50 nM

Sample CCc1cc(Nc2ncc([N+](=O)[O-])c(Nc3ccc4nccnc4c3N(C)S(C)(=O)=O)n2)c(OC)cc1N1CCC(N2CCN(C)CC2)CC1 — what was its IC50? ≤ 50 nM

Which measured IC50 value corresponds to CCc1cc(Nc2ncc(C)c(Nc3ccc4nccnc4c3N(C)S(C)(=O)=O)n2)c(OC)cc1N1CCC(N2CCN(C)CC2)CC1 ? ≤ 50 nM

State the recorded IC50 for this entry: COc1nc(N2CCC(N3CCN(C)CC3)CC2)ccc1Nc1ncc(F)c(Nc2ccc3nccnc3c2N(C)S(C)(=O)=O)n1 500 to 2500 nM

What does the record list as IC50 for CCc1cc(Nc2ncc(Cl)c(Nc3ccc4nccnc4c3N(C)S(C)(=O)=O)n2)c(OC)cc1N1CCN(C)CC1 ? ≤ 50 nM

Using the record for COc1cc(N2CCC(N(C)C)C2)c(C)cc1Nc1ncc(Cl)c(Nc2ccc3nccnc3c2N(C)S(C)(=O)=O)n1 (stereo not shown) , report its IC50. ≤ 50 nM

Consider the molecule shown here: CCN(c1c(Nc2nc(Nc3ccc(N4CCC(N5CCN(C)CC5)CC4)cc3OC)ncc2Br)ccc2nccnc12)S(C)(=O)=O What is its recorded IC50? ≤ 50 nM

Given the molecule CN1CCN(C(=O)c2cccc(Nc3ncc(Br)c(Nc4ccc5nccnc5c4N(C)S(C)(=O)=O)n3)c2)CC1 , what is its reported IC50? 50 to 500 nM

Record request: IC50 value, item CCc1cc(Nc2ncc(Br)c(Nc3ccc4nccnc4c3N(CC)S(C)(=O)=O)n2)c(OC(F)(F)F)cc1N1CCC(N2CCN(C)CC2)CC1 50 to 500 nM

Would you mind telling me what IC50 value was observed for CCc1cc(Nc2ncc(C#N)c(Nc3ccc4nccnc4c3N(C)S(C)(=O)=O)n2)c(OC)cc1N1CCC(N2CCN(C)CC2)CC1 ? 50 to 500 nM

// query IC50 value for entry COc1cc(N2CCC(N3CCN(C)CC3)CC2)c(CC2CC2)cc1Nc1ncc(F)c(Nc2ccc3nccnc3c2N(C)S(=O)(=O)C2CC2)n1 50 to 500 nM

###

assay target: various mutants of kinase EGFR (BaF3 cell lines stably transfected with kinase) (Homo sapiens)
Construct: other: BaF3 cells stably transfected with EGFR Δ19Del; MTS, 48 h; other: BaF3 cell line stably transfected with EGFR Δ19Del
measurement protocol: Growth inhibitory activity of compounds on BaF3 cell lines stably transfected with kinase (MTS, 48 h)
Format: cell-based
stated conditions: BaF3 cell line stably transfected with EGFR Δ19Del, read-out: Δ19Del growth inhibitory activity IC50
pIC50: −log10 of the molar value.
As shown below, each of these molecules has a reported pIC50 value.

molecule: CCc1cc(Nc2ncc(Br)c(Nc3ccc4nccnc4c3NS(C)(=O)=O)n2)ccc1N1CCC(N2CCN(C)CC2)CC1 [Compound I-409]
reported property: pIC50
experimental value: ≥ 7.30
//
molecule: COc1cc(N2CCC(N3CCN(C)CC3)CC2)ccc1Nc1ncc(C)c(Nc2ccc3nccnc3c2N(C)S(C)(=O)=O)n1 [Compound I-313]
reported property: pIC50
experimental value: 6.30 to 7.30
//
molecule: CCc1cnc(Nc2cc(C)c(N3CCC(N4CCN(C)CC4)CC3)cc2OC)nc1Nc1ccc2nccnc2c1N(C)S(C)(=O)=O [Compound I-317]
reported property: pIC50
experimental value: ≥ 7.30
//
molecule: CCc1cc(Nc2nc(Nc3ccc4nccnc4c3N(C)S(C)(=O)=O)c3ccsc3n2)c(OC(F)(F)F)cc1N1CCC(N2CCN(C)CC2)CC1 [II-2-4]
reported property: pIC50
experimental value: 5.60 to 6.30
//
molecule: COc1cc(N2CCC(N(C)C)CC2)c(C)cc1Nc1nc(Nc2ccc3nccnc3c2N(C)S(C)(=O)=O)c2sccc2n1 [II-1-13]
reported property: pIC50
experimental value: 5.60 to 6.30

Given the molecule COc1cc(N2CCC(N3CCN(C)CC3)CC2)c(CC2CC2)cc1Nc1ncc(Br)c(Nc2ccc3nccnc3c2N(C2CC2)S(C)(=O)=O)n1 [Compound I-308] , what is its reported pIC50? 6.30 to 7.30

Which value of pIC50 has been reported for CCc1cc(Nc2ncc(Br)c(Nc3ccc4nccnc4c3NS(C)(=O)=O)n2)c(OC)nc1N1CCC(N2CCN(C)CC2)CC1 [Compound I-404] in the records? 6.30 to 7.30

Value lookup for pIC50; key = CCc1cnc(Nc2ccc(N3CCC(N4CCN(C)CC4)CC3)cc2OC)nc1Nc1ccc2nccnc2c1N(C)S(C)(=O)=O [Compound I-316] 6.30 to 7.30

Reported pIC50 for CCc1cc(Nc2ncc(CC)c(Nc3ccc4nccnc4c3N(C)S(C)(=O)=O)n2)c(OC)cc1C(=O)N1CCC(N2CCN(C)CC2)CC1 [Compound I-350] : what is it? 6.30 to 7.30

Quick check: pIC50 of COc1cc(N2CCC(N3CCN(C)CC3)CC2)c(C)cc1Nc1ncc(Br)c(Nc2ccc3nccnc3c2NS(C)(=O)=O)n1 [Compound I-402] ? ≥ 7.30

###

Each entry below carries its recorded IC50.
assay target: various mutants of kinase EGFR (BaF3 cell lines stably transfected with kinase) (Homo sapiens, UniProt P00533, T790M/C797S, form not given)
Construct: other: BaF3 cells stably transfected with EGFR Δ19Del/T790M/C797S; MTS, 48; other: BaF3 cell line stably transfected with EGFR Δ19Del/T790M/C7
Sequence (P00533 with tags, fused parts or gaps DEL746-750/T790M/C797S, form open): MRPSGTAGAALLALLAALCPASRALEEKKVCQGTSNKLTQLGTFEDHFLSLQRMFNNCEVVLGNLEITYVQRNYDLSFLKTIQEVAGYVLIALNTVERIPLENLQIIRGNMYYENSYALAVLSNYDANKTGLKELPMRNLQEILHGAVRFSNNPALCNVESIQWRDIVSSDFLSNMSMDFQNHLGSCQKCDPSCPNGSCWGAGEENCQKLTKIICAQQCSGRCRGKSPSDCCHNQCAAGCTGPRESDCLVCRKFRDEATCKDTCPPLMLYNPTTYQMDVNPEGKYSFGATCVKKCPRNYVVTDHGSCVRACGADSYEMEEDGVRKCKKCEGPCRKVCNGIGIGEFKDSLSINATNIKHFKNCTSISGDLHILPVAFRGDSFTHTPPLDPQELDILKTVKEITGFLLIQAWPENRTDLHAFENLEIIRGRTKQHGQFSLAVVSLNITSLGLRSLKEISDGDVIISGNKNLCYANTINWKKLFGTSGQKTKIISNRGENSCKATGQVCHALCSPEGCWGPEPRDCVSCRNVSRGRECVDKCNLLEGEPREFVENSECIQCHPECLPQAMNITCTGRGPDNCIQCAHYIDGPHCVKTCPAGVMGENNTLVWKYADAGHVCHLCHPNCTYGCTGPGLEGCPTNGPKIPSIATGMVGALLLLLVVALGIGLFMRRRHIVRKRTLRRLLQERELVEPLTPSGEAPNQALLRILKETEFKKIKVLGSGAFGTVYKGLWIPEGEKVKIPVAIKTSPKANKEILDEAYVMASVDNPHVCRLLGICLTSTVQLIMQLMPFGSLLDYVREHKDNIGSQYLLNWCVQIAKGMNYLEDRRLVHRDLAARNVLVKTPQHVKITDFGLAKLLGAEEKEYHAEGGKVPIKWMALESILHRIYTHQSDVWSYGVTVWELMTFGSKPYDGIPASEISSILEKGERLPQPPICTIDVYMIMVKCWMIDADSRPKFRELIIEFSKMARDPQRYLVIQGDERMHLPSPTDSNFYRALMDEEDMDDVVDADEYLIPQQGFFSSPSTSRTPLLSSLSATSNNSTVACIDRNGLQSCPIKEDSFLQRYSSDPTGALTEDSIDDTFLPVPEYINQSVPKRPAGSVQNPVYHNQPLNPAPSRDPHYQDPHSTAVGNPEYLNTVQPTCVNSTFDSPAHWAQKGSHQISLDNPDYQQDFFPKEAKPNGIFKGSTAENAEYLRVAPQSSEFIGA
measurement protocol: Growth inhibitory activity of compounds on BaF3 cell lines stably transfected with kinase (MTS, 48 h)
Type: cell-based
stated conditions: BaF3 cells stably transfected with EGFR Δ19Del/T790M/C797S, read-out: IC50, growth inhibition, Δ19Del/T790M/C797S

Reference set, count: 3
compound: CCc1cc(Nc2ncc(Cl)c(Nc3ccc4nccnc4c3N(C)S(=O)(=O)C(F)(F)F)n2)c(OC)cc1N1CCC(N(C)C)CC1 [Compound I-132]
IC50: ≤ 50 nM
//
compound: CCS(=O)(=O)N(C)c1c(Nc2nc(Nc3cc(C)c(N4CCC(N5CCN(C)CC5)CC4)cc3OC)ncc2Cl)ccc2nccnc12 [Compound I-114]
IC50: ≤ 50 nM
//
compound: CCc1cc(Nc2ncc(Cl)c(Nc3ccc4nccnc4c3N(C)S(=O)(=O)C(F)(F)F)n2)c(OC)cc1N1CCC(N2CCN(C)CC2)CC1 [Compound I-130]
IC50: 50 to 500 nM

Which IC50 reading was recorded for the compound CCc1cc(Nc2ncc(Cl)c(Nc3ccc4nccnc4c3N(C)S(=O)(=O)C(C)C)n2)c(OC)cc1N1CCC(N(C)C)C1 (stereo not shown) [Compound I-143] ? ≤ 50 nM

// lookup IC50 for COc1ccc(NC(=O)CN(C)C)cc1Nc1ncc(Br)c(Nc2ccc3nccnc3c2N(C)S(C)(=O)=O)n1 [Compound I-85] 50 to 500 nM

Using the record for C=Cc1cc(Nc2ncc(Cl)c(Nc3ccc4nccnc4c3N(C)S(=O)(=O)C(F)(F)F)n2)c(OC(F)(F)F)cc1N1CCC(N2CCN(C)CC2)CC1 [Compound I-263] , report its IC50. 50 to 500 nM

Look at this compound and give its reported IC50. CCc1cc(Nc2ncc(Br)c(Nc3ccc4nccnc4c3N(C3CC3)S(C)(=O)=O)n2)c(OC(F)(F)F)cc1N1CCC(N2CCN(C)CC2)CC1 [Compound I-156] ≤ 50 nM

Which IC50 is listed for CCc1cc(Nc2ncc(F)c(Nc3ccc4nccnc4c3N(C)S(C)(=O)=O)n2)c(OC)nc1N1CCC(N2CCN(C)CC2)CC1 [Compound I-177] ? ≤ 50 nM

Quick check: IC50 of CCc1cc(Nc2ncc(Br)c(Nc3ccc4nccnc4c3N(C)S(=O)(=O)C(C)C)n2)c(OC)cc1N1CCC(N2CCN(C)CC2)CC1 [Compound I-135] ? ≤ 50 nM

Data request, read-out IC50, for CCc1cc(Nc2ncc(Cl)c(Nc3ccc4nccnc4c3N(C3CC3)S(C)(=O)=O)n2)c(OC)cc1N1CCN(C)CC1 [Compound I-245] ≤ 50 nM

Could you share which IC50 value was measured for COc1nc(N2CCC(N3CCN(C)CC3)CC2)ccc1Nc1ncc(Cl)c(Nc2ccc3nccnc3c2N(C2CC2)S(C)(=O)=O)n1 [Compound I-239] ? ≤ 50 nM

Query (compound): COc1cc(N2CCC(N3CCN(C)CC3)CC2)ccc1Nc1ncc(Br)c(Nc2ccc3nccnc3c2N(C)S(C)(=O)=O)n1 [Compound I-1] ; field requested: IC50 ≤ 50 nM

For the compound shown here, COc1cc(N2CCC(N3CCN(C)CC3)CC2)ccc1Nc1ncc(Cl)c(Nc2ccc3nccnc3c2N(C)S(C)(=O)=O)n1 [Compound I-18] , give the reported IC50. 50 to 500 nM
